I'd appreciate it if you could supply MIC values for the items below.
System: Staphylococcus aureus
Experiment: Antimicrobial activity against Staphylococcus aureus harboring ANT(4')-1 enzyme
Type: functional

// below: answered compounds
[
  {
    "Compound": "NCC[C@H](O)C(=O)N[C@@H]1C[C@H](N)[C@@H](O[C@H]2O[C@H](CN)[C@@H](O)[C@H](O)[C@H]2O)[C@H](O)[C@H]1O[C@H]1O[C@H](CO)[C@@H](O)[C@H](N)[C@H]1O [AMIKACIN]",
    "Recorded Result": "64 µg/mL"
  },
  {
    "Compound": "CN[C@@H]1[C@@H](O)[C@@H](O[C@@H]2[C@@H](O)[C@H](O[C@H]3O[C@H]([C@@H](C)NC)CC[C@H]3N)[C@@H](N)C[C@H]2N)OC[C@]1(C)O [GENTAMICIN C1]",
    "Recorded Result": "0.5 µg/mL"
  },
  {
    "Compound": "NCC[C@H](O)C(=O)N[C@@H]1C[C@H](N)[C@@H](O[C@H]2O[C@H](CN)CC[C@H]2N)[C@H](O[C@@H]2O[C@H](CO)[C@@H](O[C@H]3O[C@@H](CN)CC[C@H]3N)[C@H]2O)[C@H]1O",
    "Recorded Result": "1 µg/mL"
  },
  {
    "Compound": "NC[C@@H]1O[C@H](O[C@H]2[C@@H](O)[C@H](O[C@@H]3[C@@H](O)[C@H](N)C[C@H](N)[C@H]3O[C@H]3O[C@H](CO)[C@@H](O)[C@H](O)[C@H]3N)O[C@@H]2CO)[C@H](N)[C@@H](O)[C@@H]1O [PAROMOMYCIN]",
    "Recorded Result": "> 64 µg/mL"
  },
  {
    "Compound": "NC[C@@H]1CC[C@@H](N)[C@@H](O[C@H]2[C@H](O[C@@H]3O[C@H](CO)[C@@H](O[C@H]4O[C@@H](CN)CC[C@H]4N)[C@H]3O)[C@@H](O)[C@H](N)C[C@@H]2N)O1",
    "Recorded Result": "0.5 µg/mL"
  }
]

Query block: I am curious: what MIC value has been reported for NCC[C@H](O)C(=O)N[C@@H]1C[C@H](N)[C@@H](O[C@H]2O[C@H](CO)CC[C@H]2N)[C@H](O[C@@H]2O[C@H](CO)[C@@H](O[C@H]3O[C@@H](CN)CC[C@H]3N)[C@H]2O)[C@H]1O ?
Result block: 8 µg/mL
